# Tested on: P. aeruginosa variant 1
# MEASUREMENT SETUP: P. aeruginosa variant 1, obtained by step-wise culture with ciprofloxacin hydrochloride; MHB, 37°C, 18-24 h
No end group written: not given here.
Below is a list of entries, each paired with its recorded MIC value.
REPORTED METRIC: MIC (µM)

> print(dat)
                               substance            tested.system  reported.metric  relation  numeric.readout
1  FRIRVRV-NH2 [FV7, reference compound]  P. aeruginosa variant 1              MIC         =                8
2                      RKKTRKR-NH2 [RR7]  P. aeruginosa variant 1              MIC         >              256
3        RFRRLFRIRVRVLKKI-NH2 [R-FV-I16]  P. aeruginosa variant 1              MIC         =                2
4            RFRRLRKKTRKRLKKI-NH2 [RI16]  P. aeruginosa variant 1              MIC         >              256
